target: pooled human IgG (human IgG1, 2, 3 and 4)
Value kind: Enzyme Activity Endpoint Assay (purified): Fab′2

Study these solved cases before continuing.
| Protein | Assay value |
| --- | --- |
| PRT-603 (protein) MQITTVWTKGVTPLTPEQFRYNNEDVIHAPYLAHQGWYDITKAFDGKDNLLCGAATAGNMLHWWFDQNKTEIEAYLSKHPEKQKIIFNNQELFDLKAAIDTKDSQTNSQLFNYFRDKAFPNLSARQLGVMPDLVLDMFINGYYLNVFKTQSTDVNRPYQDKDKRGGIFDAVFTRGDQTTLLTARHDLKNGGLNDISTIIKQELQSGRALALSHTYANVSISHVINLWGADFNAEGNLEAIYVTDSDANASIGMKKYFVGINAHGHVAISAKKIEGENIGAQVLGLFTLSSGKDIWQKLSLEHHHHHH | 965 ng/µL |
| PRT-423 (protein) MTITSVWTKGVTPPTPEDFRYNNEDVLHAPYVANQGWYDITKTFDGKDNLLCGAATAGNMLHWWFDQNKEEIERYLKKHPEKQKIIFNNQELFDVKAAIDTKDSQTNSKLFNYFRDKAFPNLSARQLGVMPDLVLDMFINGYYLNLGKTQSTDVNRPYQDKDKRGGIFDAVFTRGDQTTLLTARHDLKNKGLNEISDLIKQELTEGKALALSHTYANVRINHVINLWGADFDAEGNLIAIYVTDSDANASIGMKKYFVGRNANGKVAISAKKIEGDNIGAQVLGLFTLSTGQDIWQKLS | 398 ng/µL |
| PRT-429 (protein) MTITSVWTKGVTPPTPEDFRYNNEDVLHAPYVANQGWYDITKTFDGKDNLLCGAATAGNMLHWWFDQNKEEIERYLKKHPEKQKIIFNNQELFDVKAAIDTKDSQTNSKLFNYFRDKAFPNLSARQLGVMPDLVLDMFINGYYLNLGKTQSTDVNRPYQDKDKRGGIFDAVFTRGDQTTLLTARHDLKNKGLNEISDLIKQELTEGKALALSHTYANVRINHVINLWGADFDAEGNLIAIYVTDSDARASIGMKKYFVGVNANGKVAISAKKIEGDNIGAQVLGLFTLSTGQDIWQKLS | 528 ng/µL |

// next entry
Which value of Enzyme Activity Endpoint Assay (purified): Fab′2 has been reported for PRT-495 (protein) MVTSVWTKGVTPPTDFIKGEDVFHAPYKAGQGWYDITKAFDGGDDLLCGAATAGNMLHWWFDQNKEYIEAYLKKHPEKQKIMFGDQELLDVRKAINTKGSQKNSELFNYFRDKAFPNLSARRLGVMPDLVLDMFINGYYLNVTKTQTTDVNRTYQEKDKRGGIFDAVFTRGDQSKLLTSRHDFKEKGLKEISDLIKQELTEGKALGLSHTYANVRINHVINLWGADFDSDGNLKAIYVTDSDSNASIGMKKYFVGVNSAGKVAISAKEIKEDNIGAQVLGLFTLSTGQDIWNQTNLEHHHHHH in the records? 0 ng/µL
